observation.type: melting point

Req: Can you share its melting point? I mean this compound: CC(=O)Nc1nc(CCc2ccc(CC#N)cc2)cs1
Resp: 160 to 161 °C

====

observation.type: melting point

A selection of reference data follows.
| compound | observation.type | value.observed |
| --- | --- | --- |
| CC(C)C[C@H](NC(=O)[C@H](Cc1c[nH]c2ccccc12)NC(=O)OC(C)(C)C)C(=O)CCl | melting point | 140 to 141 °C |
| CCCCCCCCCCCCCCCc1c([N+](=O)[O-])cc([N+](=O)[O-])c(O)c1C(=O)O | melting point | 78 to 82 °C |
| CN(C)C1=NC(=O)C(Cc2cccc(-c3ccc(O)c(C45CC6CC(CC(C6)C4)C5)c3)c2)S1 (centres undefined) | melting point | 243 to 246 °C |
| CCc1nc2c(N)nc(-c3ccncc3)nc2[nH]1 | melting point | > 300 °C |
| Cc1nc2ccccc2c(=O)n1CCN1CCC(Nc2nc3ccccc3n2Cc2ccc(F)cc2)CC1 | melting point | 186 °C |
| CC(C)c1cccc(C(C)C)c1NC(=O)CS(=O)(=O)CCN1CCN(c2ccccc2)CC1 | melting point | 197 to 200 °C |
| CS(=O)C1=NS(=O)(=O)c2cc(Cl)ccc2N1 (centres undefined) | melting point | 260 to 261 °C |
| CCOC(=O)C(C#N)=CNc1ccc(OC)c(OC)c1 | melting point | 150 to 155 °C |

Now take the following compound into account.
Req: Report melting point for O=C1CCC(N2Cc3c(OCc4ccc(CN5CCNCC5)cc4)cccc3C2=O)C(=O)N1 (centres undefined) please.
Resp: 196 to 198 °C

====

# melting point per entry

| compound | value.observed |
| --- | --- |
| CC(=O)N1CCC(C(=O)c2nccn2CCc2ccccc2)CC1 | 113 to 116 °C |
| Cc1c(C=O)cc2c(c1C)OCC2 | 60 °C |
| O=C(O)CCCc1cc2nc(Cl)ccc2n1S(=O)(=O)c1ccc2ncccc2c1 | 153 to 162 °C |
| Brc1ccccc1-c1c(Br)cccc1Br | 95 to 97 °C |
| O=Cc1cc(Cl)c(O)c(O)c1Cl | 176 to 178 °C |
| O=C1CCC(=O)N1c1nc(Nc2ccc(O)c(Cl)c2)cc(-c2ccccc2)n1 | 274 to 276 °C |
| O=C(O)C#CC(=O)c1ccc2c(c1)OCO2 | 122 to 124 °C |
| Cc1oc(-c2cccs2)nc1COc1ccc(Cn2cc(CCC(=O)O)c(-c3ccccc3)n2)cc1 | 159 to 160 °C |
| CCCCCCC(Nc1ccccc1)=C1C(=O)ON=C1C | 83 to 84 °C |
| COC(=O)Cc1ccc(OCC2CN(c3ccc(C(=N)N)cc3)C(=O)O2)cc1 (stereo unspecified) | 151 to 152 °C |

Req: Which melting point is listed for Cc1ccc2c(Cl)cc(Cl)c(OCC#N)c2n1 ?
Resp: 157 to 158 °C

Req: melting point for CCc1ccc(-c2c(Cl)c(CN3C(=O)CCC3=O)nc3sc4c(c23)CCNC4)cc1 ?
Resp: 157 to 158 °C

Req: Look at this compound and give its reported melting point. CNc1ccccc1C(=O)Cc1nnn[nH]1
Resp: 199 to 201 °C

Req: Dear colleague, I am looking for the recorded melting point of the following compound: NN(Cc1ccccc1)C(=S)Nc1ccccc1
Resp: 121 to 123 °C

Req: Query (compound): Cc1ccc(S(=O)(=O)NC(=O)N2C(=O)CN2C(c2ccccc2)c2ccccc2)cc1 ; field requested: melting point
Resp: 115 to 123 °C

Req: Using the record for COc1ccc(C)cc1-c1cc(F)cc2c1OC(CN)C2 (stereo unspecified) , report its melting point.
Resp: 110 to 111 °C

Req: GET /values?readout=melting point&item= CCOC(=O)c1ccc(C(=O)Nc2ccc3c(c2)C(C)(C)CC(=O)N3C)cc1
Resp: 197 to 199 °C

Req: Report melting point for N=C(NC(=O)OCc1ccccc1)NC(=O)OCc1ccccc1 please.
Resp: 149 to 150 °C

Req: Please look up its melting point: COC(=O)C1(NC(=O)C2(Br)SC=C(Br)C2Br)CCCCCC1 (stereo unspecified)
Resp: 165 to 168 °C

Req: What value of melting point has been recorded for this entry: COc1cc2c(cc1OC)CN(CCCc1cccc(NC(=O)c3cccc4c(=O)c5cccc(OC)c5[nH]c34)c1)CC2
Resp: 138 to 140 °C

Req: // query melting point value for entry COc1cc2c(cc1OC)C(=O)C(=Cc1cccc([N+](=O)[O-])c1)CC2
Resp: 186 to 187 °C

====

observation.type: melting point (°C)

| compound | units.of.measure | value.observed |
| --- | --- | --- |
| COc1cc(C(=O)N2CCN(C(=O)c3cc(OC)c(OC)c(OC)c3)C(COC(=O)N3CCCCC3)C2)cc(OC)c1OC (stereo not given) | °C | 147 |

A: Nc1nc(-n2cc(C(=O)O)c(=O)c3c(N)c(F)c(F)c(Cl)c32)c(F)cc1F
B: CC(=O)Oc1ccc(-c2cncnc2Cl)cc1OC(C)=O
Req: Which value of melting point is greater, the one for A or the one for B ? Answer = label.
Resp: A

====

Overview of recorded melting point for various compounds

| compound | observation.type | value.observed |
| --- | --- | --- |
| CCc1ccc(OCC(=O)N(Cc2nc(-c3cccnc3)no2)C(C)C)cc1 | melting point | 87.9 to 89.4 °C |
| Cc1c(-c2ccccc2)ncc2c(N3CCOC(C)C3)nnc(N3CCOC(C)C3)c12 (stereo unspecified) | melting point | 96 to 99 °C |
| COC(=O)c1cncn1C1c2ccccc2C=CC1(C)C (stereo unspecified) | melting point | 60 to 61 °C |
| CN(c1cccc2cc(C3=NCC4(CCN(S(C)(=O)=O)CC4)S3)[nH]c12)S(=O)(=O)c1cccs1 | melting point | 251 °C |
| Clc1ccc(C2=NNCC2n2cc(Cl)cn2)cc1 (stereo unspecified) | melting point | 176 °C |

Req: Requested field: melting point. Item: COc1ccc2nc(NC(=O)C(CC3CCCC3)c3ccc(S(=O)(=O)Nc4cccnc4)cc3)sc2n1 (stereo unspecified)
Resp: 125 to 127 °C

====

melting point reference

Req: Recorded melting point for O=c1c(-c2ccc(Cl)cc2)c(CCC2CC2)nc2ccccn12 , please?
Resp: 126 to 127 °C

Req: Can you look up the measured melting point of CS(=O)(=O)c1ccc(Oc2cc(OCc3ccccc3)c3[nH]c(C#N)cc3c2)cc1 for me?
Resp: 209 to 210 °C

Req: // lookup melting point for O=C(NC1=NCCCN1)Nc1c(Cl)cccc1Cl
Resp: 179 to 180 °C

Req: Can you share its melting point? I mean this molecule: CC(C)C[C@@H](C#N)NC(=O)[C@@H]1CCCC[C@@H]1NC(=O)c1ccc2ncsc2c1
Resp: 200 to 201 °C

Req: Look up melting point: CSc1ccc(-n2cnc3ccc(-c4nnc(N)o4)cc32)cc1
Resp: 254 to 255 °C

====

# melting point per record follows

| compound | value.observed |
| --- | --- |
| COc1cccc(C(NC(=O)Cc2c(Cl)cncc2Cl)C2CCCC2)c1 (stereo unspecified) | 105 to 106 °C |
| CCOC(=O)CSc1nc(Cl)cc(Nc2ccc(F)cc2)n1 | 97 to 102 °C |
| CCCC(=O)Nc1cccc(N(CCO)CCO)c1 | 88 to 90 °C |
| CC(C#N)c1c(Cl)cc([N+](=O)[O-])cc1Cl (stereo unspecified) | 72 °C |
| O=C(O)CCNC(=O)C1CN(c2ccc(-c3noc(=O)[nH]3)cc2)C(=O)O1 (stereo unspecified) | 221 to 223 °C |
| NC(=O)C1CCCc2c1c1cc(OCCCC(=O)O)ccc1n2Cc1ccccc1 (stereo unspecified) | 199 to 200 °C |
| O=C1CCC2=C(CCc3cc(F)ccc32)N1Cc1ccccc1 | 101 to 102 °C |
| COC(=O)Cc1ccc(S(C)(=O)=O)c(S(C)(=O)=O)c1 | 157 to 158 °C |
| COC(=O)c1ccc2sc(C)cc2c1 | 97 to 98 °C |
| O=c1[nH]c2cc(-n3cnc4c3CCCC4)c([N+](=O)[O-])cc2[nH]c1=O | > 300 °C |

Please find the next compound below.
Req: I'd like to know its melting point. The compound in question is CCC(=O)Nc1cc(-n2cccn2)nc(-c2ccc(Cl)o2)n1
Resp: 189 to 190 °C

====

observation.type: melting point

Example results:
| mol | melting point |
| --- | --- |
| O=C(NC(=O)N1CCCCC1)c1cc(Cl)nc(Cl)c1 | 183 to 185 °C |
| Cc1cc(C)cc(NS(=O)(=O)c2ccc(N3CCNC3=O)cc2)c1 | 216 to 218 °C |
| CNc1nnc2ccc(-c3cccc(N(C)C(C)=O)c3)nn12 | 213 to 215 °C |
| O=c1oc2c(Br)cccc2cc1S(=O)(=O)Nc1ccc(Br)cc1 | 206 to 208 °C |
| COc1ccccc1NC(=O)Nc1ccc(N2CCN(C(=O)Nc3cc(OCCO)ccc3Cl)CC2)cc1 | 179 to 180 °C |
| COC(=O)c1ncc(N)nc1N | 252 to 254 °C |
| CNC(=C[N+](=O)[O-])NCc1ccc(Cl)nc1Cl | 211 to 213 °C |
| N=C(N)Nc1nnc(-c2ccc([N+](=O)[O-])cc2)s1 | 295 to 297 °C |
| O=CC(=Cc1ccccc1OCc1ccc(Br)cc1)C(C=O)=Cc1ccccc1OCc1ccc(Br)cc1 | 210 to 211 °C |

Req: Fill blank: measured melting point of the compound CCOc1ccc2[nH]c3c([N+](=O)[O-])ccc(Cl)c3c(=O)c2c1 is ____.
Resp: 244 to 246 °C
